Values from patent US20260109699A1

# Test system: phospho-ERK1/2 (Thr202/Tyr204)
# Procedure Summary: Phospho-ERK cellular assay
# Type: cell-based
# Particulars: Homo sapiens; KYSE-520 cells, 2 h at 37° C, TR-FRET; read-out: pERK IC50
pIC50: −log10 of the molar value.
List of pIC50 values.

Cc1c(Cl)cccc1-c1ncc2c(N3CCC4(CC3)Cn3nccc3[C@H]4N)nccn12 < 6.30
N[C@@H]1c2ccnn2CC12CCN(c1cnc(Sc3ccc(Cl)c4ncccc34)cn1)CC2 > 7.00
COc1cccc2c(Sc3cnc(N4CCC5(CC4)Cn4nccc4[C@H]5N)cn3)ccnc12 > 7.00
N[C@@H]1c2ccnn2CC12CCN(c1cnc(Sc3cc(F)ccc3F)cn1)CC2 > 7.00

Item under review: "COc1c(F)ccc(Sc2cnc(N3CCC4(CC3)Cn3nccc3[C@H]4N)cn2)c1F" . Reported pIC50?
> 7.00

Item under review: "Cc1c(Cl)cccc1Sc1cnc(N2CCC3(CC2)Cn2nccc2[C@H]3N)cn1" . Reported pIC50?
> 7.00

Item under review: "N[C@@H]1c2ccnn2CC12CCN(c1cnc3nc(-c4cccc(Cl)c4Cl)ccc3n1)CC2" . Reported pIC50?
< 6.30

Item under review: "Cc1cc(Cl)ccc1Sc1cnc(N2CCC3(CC2)Cn2nccc2[C@H]3N)cn1" . Reported pIC50?
6.30 to 7.00

Item under review: "N[C@@H]1c2ccnn2CC12CCN(c1cnc(Sc3ccc(F)cc3F)cn1)CC2" . Reported pIC50?
> 7.00

Item under review: "N[C@@H]1c2ccnn2CC12CCN(c1cnc(Sc3cccc(C4CC4)c3F)cn1)CC2" . Reported pIC50?
> 7.00

Item under review: "Cc1nc(Sc2cccc(Cl)c2Cl)cnc1N1CCC2(CC1)Cn1nccc1[C@H]2N" . Reported pIC50?
6.30 to 7.00

Item under review: "N[C@@H]1c2ccnn2CC12CCN(c1cnc(Sc3cc(F)cc(F)c3)cn1)CC2" . Reported pIC50?
> 7.00
